Assay: Tmax in ICR mouse at 20 mg/kg, po
Format: ADME, organism-based
Set-up: dose 20 mg/kg, route oral
Settings: in vivo
Listing: Tmax of selected compounds
Write down the numeric answer in h and omit the unit.

Problem: Tmax lookup needed for CC(C)=CCOc1cc(Oc2ccc(S(=O)(=O)N3CC[C@H](F)C3)cc2)cc(C(=O)Nc2ncc(F)s2)c1 , thanks.
Solution: 1

Problem: # repeat for CC(C)=CCOc1cc(Oc2ccc(S(=O)(=O)C3CC3)cc2)cc(C(=O)Nc2nccs2)c1
Solution: 1

* * *

Listing: fold change (FC) of selected compounds
Biological target: Hexokinase-4 (Homo sapiens) (UniProt P35557)
Sequence (P35557 whole entry): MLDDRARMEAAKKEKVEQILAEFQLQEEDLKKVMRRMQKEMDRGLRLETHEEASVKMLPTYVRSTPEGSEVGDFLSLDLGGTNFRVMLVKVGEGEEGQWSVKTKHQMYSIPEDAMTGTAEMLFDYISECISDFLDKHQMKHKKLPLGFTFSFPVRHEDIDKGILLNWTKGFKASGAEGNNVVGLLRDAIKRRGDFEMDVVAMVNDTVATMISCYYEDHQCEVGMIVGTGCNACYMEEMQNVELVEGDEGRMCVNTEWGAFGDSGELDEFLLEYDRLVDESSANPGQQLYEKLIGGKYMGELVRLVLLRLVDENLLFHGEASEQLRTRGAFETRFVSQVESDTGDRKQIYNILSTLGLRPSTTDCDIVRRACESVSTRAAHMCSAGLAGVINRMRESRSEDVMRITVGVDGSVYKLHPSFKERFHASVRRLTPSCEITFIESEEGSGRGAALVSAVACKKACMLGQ
Assay: Activation of human recombinant glucokinase expressed in Escherichia coli BL21(DE3) coexpressing G6PDH assessed as glucose 6-phosphate formation by spectrometric analysis relative to control
Respond numerically, and do not add a unit to the figure.

Problem: fold change (FC) lookup needed for CC(C)=CCOc1cc(Oc2ccc(S(=O)(=O)N3CCOCC3)cc2)cc(C(=O)Nc2nccs2)c1 , thanks.
Solution: 2.1

Problem: # repeat for COC1CCN(S(=O)(=O)c2ccc(Oc3cc(OCC=C(C)C)cc(C(=O)Nc4ccn(C)n4)c3)cc2)CC1
Solution: 1.7

Problem: # repeat for COC1CCN(S(=O)(=O)c2ccc(Oc3cc(OCC=C(C)C)cc(C(=O)Nc4nccs4)c3)cc2)CC1
Solution: 1.7

Problem: # repeat for CC(C)=CCOc1cc(Oc2ccc(S(=O)(=O)N3CC[C@H](F)C3)cc2)cc(C(=O)Nc2cc(C)n(C)n2)c1
Solution: 1.9

* * *

Target: Hexokinase-4 (Homo sapiens)
Sequence (P35557 whole entry): as above
Assay: Activation of human recombinant glucokinase expressed in Escherichia coli BL21(DE3) coexpressing G6PDH assessed as glucose 6-phosphate formation by spectrometric analysis
Listing: EC50 of selected molecules
Write down the numeric answer in nM and omit the unit.

Some solved cases for reference:
[
  {
    "molecule": "CC(C)=CCOc1cc(Oc2ccc(S(=O)(=O)C3CC3)cc2)cc(C(=O)Nc2cnc(C)cn2)c1",
    "EC50, nM": 165
  },
  {
    "molecule": "CC(C)=CCOc1cc(Oc2ccc(S(=O)(=O)N3C[C@@H](C)O[C@@H](C)C3)cc2)cc(C(=O)Nc2ncc(F)s2)c1",
    "EC50, nM": 65.4
  },
  {
    "molecule": "CC(C)=CCOc1cc(Oc2ccc(S(=O)(=O)N3CC[C@H](F)C3)cc2)cc(C(=O)Nc2nccs2)c1",
    "EC50, nM": 52.3
  },
  {
    "molecule": "CC(C)=CCOc1cc(Oc2ccc(S(=O)(=O)N3CC4CCC(C3)O4)cc2)cc(C(=O)Nc2cc(C)n(C)n2)c1",
    "EC50, nM": 144
  },
  {
    "molecule": "CC(C)=CCOc1cc(Oc2ccc(S(=O)(=O)C3CC3)cc2)cc(C(=O)Nc2cc(C)n(C)n2)c1",
    "EC50, nM": 90.1
  },
  {
    "molecule": "CC(C)=CCOc1cc(Oc2ccc(S(=O)(=O)C3CC3)cc2)cc(C(=O)Nc2nccs2)c1",
    "EC50, nM": 28.3
  }
]

Let's switch to this molecule now.
Problem: EC50 lookup needed for CC(C)=CCOc1cc(Oc2ccc(S(=O)(=O)N3CC4CCC(C3)O4)cc2)cc(C(=O)Nc2ncc(F)s2)c1 , thanks.
Solution: 78
